- Tested on: UACC-257 melanoma
- assay_explanation: NCI-60 one-dose screen, 48 h
- test_settings: 10 µM unless noted
About 83,000 compounds went through this panel and 20% of them were active in at least one assay; those are over-represented in the sample as a whole. Active and inactive are the calls of the source. The calls were made as follows: active = growth percent below 10; inactive = the rest.
Respond using exactly one of the listed classes: active, inactive

Reference set, count: 5
>>> assigned_category("Cc1ccc([N+](=O)[O-])cc1NC(=O)Nc1cccc(F)c1")
"inactive"
>>> assigned_category("COc1cc(/C=C2\\COc3ccc(O)cc3C2=O)cc(OC)c1")
"inactive"
>>> assigned_category("COc1ccc2[nH]c(-c3ccccc3)cc2c1")
"inactive"
>>> assigned_category("COc1cc(/C=C2\\COc3ccc(O)c(O)c3C2=O)cc(OC)c1")
"active"
>>> assigned_category("CCCn1cnc2c1c(=O)n(CCCCC(C)=O)c(=O)n2C")
"inactive"

Continue with the compound presented below.
stdin: # fetch the recorded call for CCCCCCCCCCCCCCCCCc1nccn1CCO here
stdout: inactive

====

- System: NCI-H522 lung
- assay_explanation: NCI-60 one-dose screen, 48 h (100 = growth as untreated, 0 = no growth, -100 = all killed)
- test_settings: 10 µM unless noted
- Method: Growth inhibition of the NCI-H522 human Non-Small Cell Lung tumor cell line is measured as a screen for anti-cancer activity. Cells are grown in 96 well plates and exposed to the test compound for 48 hours. Compounds are tested at a single concentration, which is 10^-5 M for most compounds. The reported endpoint is percent growth (GI% or GIPRCNT), where numbers from 0 - 100% represent growth inhibition, and numbers from -100% - 0 represent cell death. […]
About 83,000 compounds went through this panel and 20% of them were active in at least one assay; those are over-represented in the sample as a whole.
Assignment: determine reported growth for the given compounds.
Numbers only, in %.

>>> observed_result("C[n+]1ccc(C#N)c2ccccc21")
68.2
>>> observed_result("COc1ccc2c(c1)C(=O)c1c-2c(OCCCN(C)C)nc2cc(Br)ccc12")
61.6
>>> observed_result("Cc1c(C(N)=O)sc2c1c(=O)n(Cc1ccccc1)c1nnc(SCC(=O)Nc3ccc(Cl)cc3)n21")
17.2
>>> observed_result("Cc1cc2c(cc1[N+](=O)[O-])NC(CNC(C)C)CC2 (stereo not given)")
105
>>> observed_result("CCOC(Cc1c(N)[nH]c(=S)[nH]c1=O)OCC")
93

Parameters: items (list). Returns: growth for each item.
1. COc1cc(Oc2cc(-c3cccnc3)ccc2NC(=O)Nc2ccc(F)cc2F)cc(OC)c1OC
2. COc1cc(/C=C/C(=O)c2c(-c3ccc(Cl)cc3)nc3sc(C)nn23)cc(OC)c1OC
3. O=C(/C=C/c1cccnc1)/C=C/c1cccnc1
4. Fc1ccc(-c2nnc(-c3c(-c4ccc(F)cc4)nc4ncccn34)o2)cc1

stdout:
1: 94.8; 2: -20.1; 3: -91.2; 4: 89.1

stdin: Could you tell me which growth is on file for COC(=O)CC1=C(C)/C(=C/c2[nH]c(-c3ccc[nH]3)cc2OC)N=C1C ?
stdout: -74.8

====

- Test system: OVCAR-5 ovarian
- assay_explanation: NCI-60 one-dose screen, 48 h (100 = growth as untreated, 0 = no growth, -100 = all killed)
- test_settings: 10 µM unless noted
The panel holds about 83,000 compounds, 20% with a hit somewhere; the sample as a whole holds those more often.
outcome_measure: growth (%)
Give bare numbers, in %.

Parameters: items (list). Returns: growth for each item.
1. COc1cc2c(-c3nc4cc(Cl)c(F)cc4s3)cc(=O)oc2c(C)c1OC
2. CCOc1cc(-c2ccc[nH]2)[nH]c1/C=C1\N=C(C)C(C(=O)OC)=C1C
3. COC(=O)CCC1=C(CC(=O)OC)C(C)=N/C1=C\c1[nH]c(-c2ccc[nH]2)cc1OC
4. O=C(c1ccccc1)c1ccccc1Cl
5. CN(C)c1cccc2c(S(=O)(=O)N[C@H]3CC[C@H]4[C@@H]5CCc6cc(O)ccc6[C@H]5CC[C@]34C)cccc12
6. COc1ccc(C2CC(c3cccc(Nc4ccnc5cc(Cl)ccc45)c3)=NN2C=O)cc1 (stereo unspecified)
7. c1ccc(-n2nnnc2-c2cccc3ccccc23)cc1

stdout:
-65.5
-67.6
65
104
78.1
45.3
35.5

Parameters: items (list). Returns: growth for each item.
1. CCCCN(CCCC)CCCOC(=O)c1ccc(N)cc1
2. O=C(/C=C/c1cccnc1)NCCCCC1CCCN(C(=O)c2ccccc2)C1 (stereo unspecified)
3. O=c1[nH]c(Cl)nc2c1cnn2-c1ccccc1
4. COc1ccc2[nH]cc(/C=C3/C(=O)Nc4ccc(Cl)cc43)c2c1
5. COC(=O)c1ccc2c(c1)nc(-c1ccc(O)c(OC)c1)n2-c1cc(C(C)(C)C)[nH]n1
6. COc1cc(C2NC(c3ccc(Cl)cc3)C(C)C(=NC(=O)c3cnccn3)C2C)cc(OC)c1OC (stereo unspecified)
7. COc1cccc2c1C(=O)c1c(O)c3c(c(O)c1C2=O)C[C@@](O)(/C(C)=N/NC(=O)c1cccc([N+](=O)[O-])c1)C[C@@H]3OC1CC(N)C(O)C(C)O1 (stereo partly specified)
8. CC[N+](C)(CC)CCCC(C)Nc1ccnc2cc(Cl)ccc12 (stereo unspecified)

stdout:
1: 97; 2: 96.1; 3: 97.2; 4: 78.1; 5: 117; 6: 94.5; 7: -9.12; 8: 119

Parameters: items (list). Returns: growth for each item.
1. O=C(Oc1ccc[nH]c1=O)c1cccc(Cl)c1
2. O=C(CSc1nnc(Nc2ccccc2)s1)NCCc1ccc(F)cc1
3. CCN(CC)CCOc1ccccc1-n1c(C)ccc1-c1ccccc1
4. CCc1[nH]nc(-c2ccc(OC)cc2)c1-c1ccccc1OCCN(CC)CC
5. Nc1nc(Cl)c2[nH]cnc2n1

stdout:
[97.5, 92.9, 101, 92.6, 93.5]

stdin: Could you tell me which growth is on file for COc1ccc(-c2cc(Cc3cccs3)c(=O)n(Cn3cncn3)n2)cc1 ?
stdout: 88

====

- System: EKVX NSCLC
- assay_explanation: NCI-60 one-dose screen, 48 h
- test_settings: 10 µM unless noted
The panel holds about 83,000 compounds, 20% with a hit somewhere; the sample as a whole holds those more often. Activity calls are given as the source filed them. Rule for the calls: active = growth percent below 10; inactive = the rest.
Respond using exactly one of the listed classes: active, inactive

Reference set, count: 3
>>> assigned_category("CCN(CC)CCNc1ccc(Cl)cc1Cl")
"inactive"
>>> assigned_category("Fc1ccc(-c2nc(Nc3ccc(-c4nc5ccccc5[nH]4)cc3)nc(N3CCOCC3)n2)cc1")
"active"
>>> assigned_category("S=c1[nH]nc2sc3ccccc3n12")
"inactive"

stdin: # fetch the recorded call for N=c1ccn2c(n1)O[C@@H]1[C@@H](O)[C@H](CO)O[C@@H]12 here
stdout: inactive

stdin: Could you do the same for COc1ccc(-c2cc(C(=O)Nc3nc4cc(C)c(C)cc4s3)nc3cc(-c4ccccc4)nn23)cc1OC , please?
stdout: inactive

stdin: Could you do the same for CCOC(=O)c1c(C)nc(C)c(C(=O)OCC)c1-c1cccnc1 , please?
stdout: inactive

stdin: Could you do the same for O=Cc1c[nH]c2ccc(NC(=O)OCc3ccccc3)cc12 , please?
stdout: inactive

stdin: Could you do the same for O=C(COC(=O)[C@H](C[Se][Se]C[C@H](NC(=O)c1ccc(Br)cc1F)C(=O)OCC(=O)c1ccc(F)cc1)NC(=O)c1ccc(Br)cc1F)c1ccc(F)cc1 , please?
stdout: active

stdin: Could you do the same for Clc1ccc(CCC(Cn2ccnc2)Sc2c(Cl)cccc2Cl)cc1 (stereo not given) , please?
stdout: inactive

stdin: Could you do the same for CCOc1ccccc1C(=O)OCC(=O)Nc1cccc(S(=O)(=O)N(C)C)c1 , please?
stdout: inactive

====

- Tested on: RPMI-8226 leukemia
- assay_explanation: NCI-60 one-dose screen, 48 h (100 = growth as untreated, 0 = no growth, -100 = all killed)
- test_settings: 10 µM unless noted
This is part of a sample that, as a whole, favours compounds with a hit. Of some 83,000 tested, about 20% had one in any assay. Calls of active or inactive are those of the source. How the source made its calls: active means growth percent below 10; inactive means the rest.
outcome_measure: growth

>>> observed_result("CC(C)[C@]12O[C@H]1[C@@H]1O[C@]13[C@]1(O[C@H]1C[C@H]1C4=C(CC[C@@]13C)C(=O)OC4)[C@@H]2OC(=O)CN(C)C")
"14.7% (inactive)"
>>> observed_result("CCC(C)(C)C(=O)O[C@H]1C[C@@H](C)C=C2C=C[C@H](C)[C@H](CC[C@@H]3C[C@@H](O)CC(=O)O3)[C@H]21")
"62.7% (inactive)"
>>> observed_result("O=C1NCN(c2ccccc2)C12CCN(CCCC(c1ccc(F)cc1)c1ccc(F)cc1)CC2")
"102% (inactive)"
>>> observed_result("CCCCCCCCCCCCCCCCN=C(CC(=O)O)C(=O)O")
"103% (inactive)"

stdin: Could you tell me which growth is on file for O=C(Nc1ccc(Cl)cc1)Nc1ccc(Oc2nncc3ccccc23)cc1 ?
stdout: -0.0795% (active)
